B1: TPR 5TU (parent)
chain: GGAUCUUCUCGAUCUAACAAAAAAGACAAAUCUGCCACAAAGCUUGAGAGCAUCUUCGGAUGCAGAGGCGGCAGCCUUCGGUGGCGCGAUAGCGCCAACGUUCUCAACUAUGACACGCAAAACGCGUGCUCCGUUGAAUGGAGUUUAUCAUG

Variants of: B1
RUN_DESCRIPTION: polymerase ribozyme fitness, log enrichment relative to wild type (log ratio); higher = more active; in vitro selection for triplet polymerase activity
Variants at the floor of the assay were thinned out.
Use t when the recorded polymerase ribozyme fitness (log ratio) is no lower than -3; use f when it is lower.

Before answering, review these 5 worked examples.
• U55A C79U C85U = f
• A41C U56A C87U U135G = f
• C14G A19G C54U C76G U82G A119G G128C U134C = f
• G83U A97G A110U G117U = f
• G58A C95U G143C = t

Request: # bool: polymerase ribozyme fitness (log ratio) of A28C U45A G88A C96A G100A G143A >= -3
Result: f

Request: Would you say G48C U61A U77A C125U U144A shows polymerase ribozyme fitness (log ratio) at minimum -3?
Result: f

Request: Item A37C C54G G92U A97U A119U with polymerase ribozyme fitness (log ratio) of -3 or above?
Result: f

Request: Quick check: does U130C have polymerase ribozyme fitness (log ratio) greater than or equal to -3?
Result: t

Request: Reported polymerase ribozyme fitness (log ratio) reaches at least -3 for C51A A52G G68A A142C U144A ?
Result: f

Request: Does polymerase ribozyme fitness (log ratio) meet or surpass -3 for G84U C99U G141C ?
Result: t

Request: Has G94C A106G a recorded polymerase ribozyme fitness (log ratio) greater than or equal to -3?
Result: t

Request: Would you say C18G A52C C69G C75G G94A C95U A113U shows polymerase ribozyme fitness (log ratio) at minimum -3?
Result: f

Request: Would you say C14U G25C C38G G67A C69A C96U A121G A147C shows polymerase ribozyme fitness (log ratio) at minimum -3?
Result: f

Request: Does the reported polymerase ribozyme fitness (log ratio) for U55A G141C fall at or above the -3 mark?
Result: t

Request: Has C14A U55A C75U A120U a recorded polymerase ribozyme fitness (log ratio) greater than or equal to -3?
Result: t

Request: Form field: polymerase ribozyme fitness (log ratio) at least -3? Entry: G94C C96U G136A G140A
Result: f

Request: Given G81C G117C A138G , state whether its polymerase ribozyme fitness (log ratio) is at least -3.
Result: f

Request: Does A12G G83A G133C G143A U146G have a reported polymerase ribozyme fitness (log ratio) of at least -3?
Result: f

Request: hey, is polymerase ribozyme fitness (log ratio) for this one >= -3? G48U A52C C93U
Result: f

Request: Kindly determine if polymerase ribozyme fitness (log ratio) recorded for A41C A47C A60U is above or exactly -3.
Result: t
